Every entry's value here was drawn from ChEMBL document CHEMBL3856233.

# ASSAY SYSTEM: CYP3A4 (Homo sapiens)
# Sequence (P08684 whole entry): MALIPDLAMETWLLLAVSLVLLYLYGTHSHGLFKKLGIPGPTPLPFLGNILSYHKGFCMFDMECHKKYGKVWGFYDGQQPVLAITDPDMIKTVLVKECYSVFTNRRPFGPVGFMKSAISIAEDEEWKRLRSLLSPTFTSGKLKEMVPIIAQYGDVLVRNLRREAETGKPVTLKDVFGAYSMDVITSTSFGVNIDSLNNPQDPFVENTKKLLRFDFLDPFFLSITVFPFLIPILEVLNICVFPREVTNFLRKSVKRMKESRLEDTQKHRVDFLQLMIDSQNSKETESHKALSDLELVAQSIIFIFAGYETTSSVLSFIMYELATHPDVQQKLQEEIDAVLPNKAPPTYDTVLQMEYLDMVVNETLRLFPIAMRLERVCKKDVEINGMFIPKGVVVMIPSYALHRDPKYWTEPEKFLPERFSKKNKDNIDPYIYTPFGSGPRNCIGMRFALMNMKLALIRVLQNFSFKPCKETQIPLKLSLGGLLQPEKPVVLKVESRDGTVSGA
# TEST DETAILS: Inhibition of CYP3A4 in human liver microsomes using midazolam as substrate assessed as reduction in 1-OH-midazolam formation at 1.25 uM by LC/MS/MS analysis
# Type: ADME
# REPORTED CONDITIONS: probe midazolam
MEASURED PROPERTY: inhibition at 1.25 µM (%)

| SMILES REPR | MEASURED PROPERTY | OBS VALUE |
| --- | --- | --- |
| C[C@@H]1c2ncn(-c3ccc(F)cn3)c2CCN1C(=O)c1cccc(C(F)(F)F)c1Cl | inhibition at 1.25 µM | 41 |
